Molecular target: human ALDH2*2 recombinant mutant enzyme (E487K) (Homo sapiens, UniProt P05091, E504K)
Construct: His-tag (pTrcHis vector) (N); made in house; host or cells: E. coli BL21
Sequence (P05091 18-517 E504K): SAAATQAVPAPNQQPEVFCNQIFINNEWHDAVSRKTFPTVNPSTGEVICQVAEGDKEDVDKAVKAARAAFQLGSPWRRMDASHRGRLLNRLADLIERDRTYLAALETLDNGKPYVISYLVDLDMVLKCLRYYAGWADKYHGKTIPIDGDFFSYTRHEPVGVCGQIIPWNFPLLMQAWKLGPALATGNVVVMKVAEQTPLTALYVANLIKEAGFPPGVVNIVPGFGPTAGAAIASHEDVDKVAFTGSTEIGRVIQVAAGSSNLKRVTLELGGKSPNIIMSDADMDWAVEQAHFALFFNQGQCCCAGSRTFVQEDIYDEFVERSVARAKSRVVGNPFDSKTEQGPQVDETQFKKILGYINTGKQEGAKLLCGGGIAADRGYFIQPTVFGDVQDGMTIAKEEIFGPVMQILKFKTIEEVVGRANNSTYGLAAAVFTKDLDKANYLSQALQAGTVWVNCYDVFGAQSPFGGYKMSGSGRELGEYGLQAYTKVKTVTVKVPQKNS
Assay: ALDH2 enzymatic assay (NADH at 340 nm), recombinant mutant enzyme
Format: biochemical
Design: key: −: no activation or inhibition; +: activation less than control 1; ++: activation similar to control 1, within 10%; +++: activation more than control 1 and less than control (compound 161); ++++: activation similar to compound 161, within 10%
Settings: activation relative to benchmarks control 1 and compound 161
Measured quantity: ALDH2 (mutant)

Answered examples (8):
Chemical string	ALDH2 (mutant)
COc1ccc(CNC(=O)c2c(Cl)cccc2Oc2ccccc2)cc1F	++
CC(C)Oc1ccc(CNC(=O)c2c(Cl)ccnc2OCC2CC2)cc1F	−
COc1ccc(CNC(=O)c2c(C)cccc2C)cc1F	+
O=C(NCc1ccc(F)c(F)c1)c1c(Cl)cccc1OCC1CC1	++
COc1ccc(CNC(=O)c2c(Cl)ccnc2NCC2CC2)cc1F	++
CCCSc1nccc(Cl)c1C(=O)NCc1ccc(OC)c(F)c1	+++
COc1ccc(CNC(=O)c2c(Cl)cccc2Br)cc1	+
COc1ccc(CNC(=O)c2ccccc2Cl)cc1F	+

Q: Under human ALDH2*2 recombinant mutant enzyme (E487K) (Homo sapiens, UniProt P05091, E504K), report ALDH2 (mutant) for COc1ccc(CNC(=O)c2c(Cl)ccnc2OCC(C)(C)C)cc1F
A: ++

Q: Under human ALDH2*2 recombinant mutant enzyme (E487K) (Homo sapiens, UniProt P05091, E504K), report ALDH2 (mutant) for CN(C)c1ccc(CNC(=O)c2c(Cl)cccc2Cl)cc1
A: −

Q: Under human ALDH2*2 recombinant mutant enzyme (E487K) (Homo sapiens, UniProt P05091, E504K), report ALDH2 (mutant) for COc1ccc(CNC(=O)c2c(Cl)cccc2OCC2CCCC2)cc1F
A: +++
